Here's a batch of compounds along with measured Kd for von Hippel-Lindau disease tumor suppressor (Homo sapiens, UniProt P40337).

See these solved cases before continuing.
compound | result
CC(=O)N[C@H](C(=O)N1C[C@H](O)C[C@H]1C(=O)N[C@H](Cc1ccc(C)cc1)C(N)=O)C(C)(C)C | > 57.5 µM
CC(=O)N[C@]1(C(=O)N2C[C@H](O)C[C@H]2C(=O)N[C@H](Cc2ccc(-c3ccccc3)cc2)C(N)=O)CC1(C)C | > 57.5 µM

-- ask Form entry - test system: von Hippel-Lindau disease tumor suppressor (Homo sapiens, UniProt P40337); read-out: Kd; compound: CC(=O)N[C@H](C(=O)N1C[C@H](O)C[C@H]1C(=O)N[C@H](Cc1ccc(-c2cccc(Cl)n2)cc1)C(N)=O)C(C)(C)C
Sequence (P40337 whole entry): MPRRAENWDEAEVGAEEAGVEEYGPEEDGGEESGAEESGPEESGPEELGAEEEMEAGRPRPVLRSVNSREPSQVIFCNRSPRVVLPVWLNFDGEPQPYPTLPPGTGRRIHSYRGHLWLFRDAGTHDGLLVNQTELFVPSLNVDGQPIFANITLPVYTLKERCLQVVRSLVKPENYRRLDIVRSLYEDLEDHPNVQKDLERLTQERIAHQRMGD
-- reply > 57.5 µM
